- tested.on: UniProt:Q8N474
- Sequence (Q8N474 32-314): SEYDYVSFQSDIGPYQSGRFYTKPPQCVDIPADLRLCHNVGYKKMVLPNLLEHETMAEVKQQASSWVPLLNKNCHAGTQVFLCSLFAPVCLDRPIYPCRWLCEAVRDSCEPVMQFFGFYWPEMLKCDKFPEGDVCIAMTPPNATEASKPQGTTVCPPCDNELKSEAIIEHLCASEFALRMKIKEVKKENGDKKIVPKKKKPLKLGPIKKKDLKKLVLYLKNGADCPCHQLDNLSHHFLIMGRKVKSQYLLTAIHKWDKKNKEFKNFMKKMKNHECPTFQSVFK
- test.summary: Cell-based assay for in vitro measurement of SFRP-1/SARP2 antagonist activity (U2OS cells co-transfected with 16x TCF-tk-Luciferase reporter, Wnt and hSFRP-1);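 note: U2OS cells co-transfected with a TCF-tk luciferase reporter, a Wnt vector, hSFRP-1 or empty vector and CMV-βgal, luciferase luminescence read in cell lysates alongside βgal activity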
- measurement.setup: U2OS, read-out: Fold Induction with SFRP-1, U2OS cells, single dose 10 μM, luciferase reporter, fold induction over SFRP-1 control
value.kind: fold induction at 10 µM

// solved cases for fold induction at 10 µM follow
COc1ccc(S(=O)(=O)c2ccc(C(F)(F)F)c(S(=O)(=O)NCCC#N)c2)cc1 ... 4.1
O=S(=O)(NCc1ccncc1)c1cc(S(=O)(=O)c2ccccc2)ccc1C(F)(F)F ... 3.2
O=C(O)c1cccc(NC(=S)N2CCC(NS(=O)(=O)c3cc(S(=O)(=O)c4ccccc4)ccc3C(F)(F)F)CC2)c1 ... 3.4

A: N#CCCNS(=O)(=O)c1cc(S(=O)(=O)c2ccccc2)ccc1C(F)(F)F
B: CC(C)(C)OC(=O)N1CCC[C@H](NS(=O)(=O)c2cc(S(=O)(=O)c3ccccc3)ccc2C(F)(F)F)C1
Request: Could you determine which record has the numerically smaller fold induction at 10 µM? Candidates: A and B Indicate your choice by writing its label.
Result: B
(B: 1.7, A: 3.4)

The origin of these recorded values is patent US20060276464A1.
